Molecular target: human estrogen receptor α (hERα) (Homo sapiens, UniProt P03372)
Construct: expressed in transfected cells; host or cells: cytosol of recombinant Chinese hamster ovary (CHO) cells stably transfected with hERα
Sequence (P03372 1-595): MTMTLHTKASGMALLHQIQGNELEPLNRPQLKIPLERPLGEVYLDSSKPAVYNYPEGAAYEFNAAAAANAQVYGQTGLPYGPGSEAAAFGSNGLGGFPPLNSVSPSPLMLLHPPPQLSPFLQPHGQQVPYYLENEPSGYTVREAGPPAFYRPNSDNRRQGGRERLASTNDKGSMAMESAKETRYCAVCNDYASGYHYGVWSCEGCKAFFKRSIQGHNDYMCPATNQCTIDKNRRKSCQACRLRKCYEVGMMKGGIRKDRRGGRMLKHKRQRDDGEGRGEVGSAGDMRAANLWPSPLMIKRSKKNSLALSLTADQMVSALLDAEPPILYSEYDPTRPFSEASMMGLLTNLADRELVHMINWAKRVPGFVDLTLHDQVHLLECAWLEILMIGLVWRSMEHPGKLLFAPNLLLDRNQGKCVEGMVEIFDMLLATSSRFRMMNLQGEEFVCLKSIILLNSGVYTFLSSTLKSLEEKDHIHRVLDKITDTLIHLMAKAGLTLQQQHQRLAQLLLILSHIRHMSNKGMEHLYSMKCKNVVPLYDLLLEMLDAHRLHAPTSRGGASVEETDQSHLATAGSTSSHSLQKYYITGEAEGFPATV
Assay: competitive binding to cytoplasmic human estrogen receptor α from recombinant CHO cells
Conditions: % relative to 17β-estradiol; cytosol of recombinant CHO cells; Table 2
READOUT LABEL: Binding ERα

1. Oc1ccc2nc3c(c(Cl)c2c1)-c1cccc(O)c1CC3 ++ (between 1.5-3.5%)
2. Oc1ccc2c(c1)Cc1c-2nc2ccc(O)cc2c1Br − (<0.3%)
3. Oc1ccc2c(c1)Cc1c-2nc2ccc(O)cc2c1Cl − (<0.3%)
4. Oc1ccc2c(c1)Cc1cc3cc(O)ccc3c(Cl)c1-2 ++ (between 1.5-3.5%)
